# MEASURED_TARGET: T1, human CD166 protein (human, UniProt Q13740 28-526, limits assumed)
# T1 construct: Isolated human CD166 protein coated on ELISA plates; also called ALCAM
# T1 sequence (looked up): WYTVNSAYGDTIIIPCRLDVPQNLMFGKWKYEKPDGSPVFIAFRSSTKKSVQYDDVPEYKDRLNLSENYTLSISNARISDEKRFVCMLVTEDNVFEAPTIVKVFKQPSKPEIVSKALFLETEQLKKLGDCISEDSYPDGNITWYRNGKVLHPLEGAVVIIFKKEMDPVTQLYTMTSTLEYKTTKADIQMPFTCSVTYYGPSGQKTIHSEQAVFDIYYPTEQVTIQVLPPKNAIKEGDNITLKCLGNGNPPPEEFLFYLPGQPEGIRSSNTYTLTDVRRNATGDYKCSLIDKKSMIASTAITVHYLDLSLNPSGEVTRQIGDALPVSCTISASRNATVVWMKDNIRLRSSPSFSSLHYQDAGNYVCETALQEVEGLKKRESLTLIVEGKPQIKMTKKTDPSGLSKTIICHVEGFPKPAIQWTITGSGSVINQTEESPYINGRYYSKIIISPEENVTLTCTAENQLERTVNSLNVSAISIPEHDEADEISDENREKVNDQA
# EXPERIMENT_NOTES: ELISA, human CD166 protein coated; apparent Kd
READOUT_TYPE: pKd
Remember the convention: pKd equals -log10 of concentration in molar.

CD166-7614.7-2001 (antibody) chain 1: QITLKESGPTLVKPTQTLTLTCTFSGFSLSTYGMGVGWIRQPPGKALEWLANIWWSEDKHYSPSLKSRLTITKDTSKNQVVLTMTNMDPVDTATYYCVQIDYGNDYAFTYWGQGTLVTVSS chain 2: QGQSGQGLCHPLALSAWESCSSGGGSSGGSISSGLLSGRSDNHGGGSDIVMTQSPLSLPVTPGEPASISCRSSKSLLHSNGITYLYWYLQKPGQSPQLLIYQMSNLASGVPDRFSGSGSGTDFTLKISRVEAEDVGVYYCAQNLELPYTFGQGTKLEIK = 6.21

Moving on to the next binder.
## Task Endpoint output: pKd of CD166-7614.10-2001 (antibody) chain 1: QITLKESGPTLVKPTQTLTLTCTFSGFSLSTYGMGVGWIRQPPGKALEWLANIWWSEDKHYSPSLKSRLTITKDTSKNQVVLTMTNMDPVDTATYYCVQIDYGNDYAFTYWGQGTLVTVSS chain 2: QGQSGQGLCHPLVLSAWASCSSGGGSSGGSISSGLLSGRSDNHGGGSDIVMTQSPLSLPVTPGEPASISCRSSKSLLHSNGITYLYWYLQKPGQSPQLLIYQMSNLASGVPDRFSGSGSGTDFTLKISRVEAEDVGVYYCAQNLELPYTFGQGTKLEIK . Value?
## Result 6.16
